Molecular target: TDO in A172 cells (Homo sapiens)
Construct: endogenous in cells; host or cells: A172 cells
Sequence (P48775 whole entry): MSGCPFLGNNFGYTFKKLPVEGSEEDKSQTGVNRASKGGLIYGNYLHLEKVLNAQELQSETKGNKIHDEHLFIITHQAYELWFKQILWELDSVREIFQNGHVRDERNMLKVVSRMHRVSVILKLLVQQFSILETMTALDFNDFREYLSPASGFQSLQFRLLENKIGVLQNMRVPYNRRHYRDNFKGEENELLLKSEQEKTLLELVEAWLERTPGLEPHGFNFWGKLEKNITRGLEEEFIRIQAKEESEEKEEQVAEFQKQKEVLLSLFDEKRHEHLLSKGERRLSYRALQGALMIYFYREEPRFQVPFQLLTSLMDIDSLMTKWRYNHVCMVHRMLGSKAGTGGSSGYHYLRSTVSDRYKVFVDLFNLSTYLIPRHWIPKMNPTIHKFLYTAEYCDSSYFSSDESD
Experiment: TDO cell-based assay, kynurenine production in A172 cells
Settings: A 172; final concentration of the compound 10 μM; rate relative to culture without compound
Structures can show the parent of a compound that is named as a salt.
Some molecules, each annotated with its measured remaining activity at 10 µM.
Quick reminder: number only, in %, skip the unit.

Some solved cases for reference:
molecule=N/C(=N\c1ccc(Br)cc1)SCc1ccc(Br)cc1CS/C(N)=N/c1ccc(Br)cc1 unitlabel=% testresult=8
molecule="Brc1ccc(CS/C(=N/C2CCCCC2)NC2CCCCC2)c(CS/C(=N/C2CCCCC2)NC2CCCCC2)c1 [Compound 57, dihydrobromide]" unitlabel=% testresult=12
molecule="N#Cc1ccc(CNC(=O)c2cc(Br)ccc2C[Se]C(=N)N)cc1 [Compound 110, hydrobromide]" unitlabel=% testresult=38

Enquiry: Consider the molecule `FC(F)(F)c1ccc(CSC2=NCN(CCc3ccc(Cl)c(Cl)c3)CN2)c(CSC2=NCN(CCc3ccc(Cl)c(Cl)c3)CN2)c1` and give its recorded remaining activity at 10 µM.
Return: 45

---

Target: IDO in A431 cells (Homo sapiens)
Construct: endogenous in cells; host or cells: A431 cells, IFN-γ stimulated
Sequence (P14902 whole entry): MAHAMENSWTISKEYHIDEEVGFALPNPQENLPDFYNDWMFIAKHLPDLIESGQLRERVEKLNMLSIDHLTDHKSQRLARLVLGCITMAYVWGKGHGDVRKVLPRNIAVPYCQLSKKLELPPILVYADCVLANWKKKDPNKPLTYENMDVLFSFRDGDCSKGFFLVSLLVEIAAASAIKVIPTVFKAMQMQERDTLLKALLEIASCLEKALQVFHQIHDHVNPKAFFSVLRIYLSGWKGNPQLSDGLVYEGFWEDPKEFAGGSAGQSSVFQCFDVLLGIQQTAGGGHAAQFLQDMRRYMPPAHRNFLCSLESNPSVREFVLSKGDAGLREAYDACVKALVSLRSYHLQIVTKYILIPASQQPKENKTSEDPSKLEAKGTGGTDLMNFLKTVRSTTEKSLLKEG
Experiment: IDO cell-based assay, kynurenine production in IFN-γ stimulated A431 cells
Conditions: A-431, 24 h; final concentration of the compound 10 μM; rate relative to culture without compound
Where a name gives a salt, the structure may show the parent alone.
measuredParameter: remaining activity at 10 µM (%)
Quick reminder: number only, in %, skip the unit.

molecule="N=C(N)SCc1cc(Br)ccc1C(=O)NCc1ccc(F)c(Cl)c1 [Compound 116, hydrobromide]" testresult=92
molecule=FC(F)(F)c1cccc(CCN2CN=C(SCc3ccc(Br)cc3CSC3=NCN(CCc4cccc(C(F)(F)F)c4)CN3)NC2)c1 testresult=7
molecule="N#Cc1ccc(CNC(=O)c2cc(Br)ccc2C[Se]C(=N)N)cc1 [Compound 110, hydrobromide]" testresult=13

Enquiry: Consider the molecule `Fc1ccc(CN2CN=C(SCc3ccc(Br)cc3CSC3=NCN(Cc4ccc(F)c(Cl)c4)CN3)NC2)cc1Cl` and give its recorded remaining activity at 10 µM.
Return: 6

Enquiry: Consider the molecule N=C(N)SCc1cc(Br)ccc1C(=O)NCc1ccc(Cl)cc1Cl [Compound 89, hydrobromide] and give its recorded remaining activity at 10 µM.
Return: 122

Enquiry: Consider the molecule N/C(=N\c1ccc(F)c(Cl)c1)SCc1ccc(F)cc1CS/C(N)=N/c1ccc(F)c(Cl)c1 [Compound 129, dihydrobromide] and give its recorded remaining activity at 10 µM.
Return: 7

Enquiry: Consider the molecule COc1ccc(CNC(=O)c2ccc(Br)cc2CSC(=N)N)cc1 [Compound 102, hydrobromide] and give its recorded remaining activity at 10 µM.
Return: 112

Enquiry: Consider the molecule N#Cc1ccc(CNC(=O)c2ncccc2CS/C(N)=N/c2ccc(F)c(Cl)c2)cc1 [Compound 101, hydrobromide] and give its recorded remaining activity at 10 µM.
Return: 61

Enquiry: Consider the molecule CC(C)(C)c1ccc(CSC(=N)N)c(CSC(=N)N)c1 [Compound 4, dihydrobromide] and give its recorded remaining activity at 10 µM.
Return: 68

Enquiry: Consider the molecule `COc1ccc(CN2CN=C(SCc3ccccc3CSC3=NCN(Cc4ccc(OC)cc4)CN3)NC2)cc1` and give its recorded remaining activity at 10 µM.
Return: 5

Enquiry: Consider the molecule N=C(N)[Se]Cc1cc(Br)ccc1C(=O)NCC1CC1 [Compound 107, hydrobromide] and give its recorded remaining activity at 10 µM.
Return: 44

Enquiry: Consider the molecule N=C(N)SCc1ccccc1CC(=O)NCC1CCCCC1 [Compound 65, hydrobromide] and give its recorded remaining activity at 10 µM.
Return: 104

Enquiry: Consider the molecule N/C(=N\c1ccc(F)cc1F)SCc1cc(Cl)c(Cl)cc1CS/C(N)=N/c1ccc(F)cc1F [Compound 63, dihydrobromide] and give its recorded remaining activity at 10 µM.
Return: 2
